These measurements were taken from patent US10562891B2.

TARGET OF ASSAY: catalytic domain of human PARP14 (Homo sapiens (Human))
METHOD NOTES: Enzymatic assay for inhibition of PARP14 (DELFIA, auto-modification with biotin-NAD)
COND: auto-modification of PARP14 by biotin-NAD, 50 nM PARP14, 3 μM biotin-NAD
Structures can show the parent of a compound that is named as a salt.
MEASURED ATTRIBUTE: IC50

Look over these answered cases.
> print(dat)
                                   compound          observed
1  CN1CCN(c2ccc3c(=O)[nH]c(CSC4CCOCC4)nc3c2)CC1 [Example 112]  1000 to 10000 nM
2  O=c1[nH]c(CSC2CCN(CCC(F)(F)F)CC2)nc2cc(NC3CCCC3)ccc12 [Example 259]         < 1000 nM
3  Cc1cccc2c(=O)[nH]c(CSC3CCN(C(=O)[C@@H](N)CCCNC(=N)N)CC3)nc12 [Example 170, Trihydrochloride]         < 1000 nM

Looking up O=c1[nH]c(CSC2CCOCC2)nc2cc(N[C@H]3CC[C@H](N4CCOCC4)CC3)cc(F)c12 [Example 233, Trifluoroacetate] , I found its IC50 recorded as < 1000 nM

---

TARGET OF ASSAY: catalytic domain of human PARP14 (Homo sapiens (Human), UniProt Q460N5)
Sequence (Q460N5 1611-1801): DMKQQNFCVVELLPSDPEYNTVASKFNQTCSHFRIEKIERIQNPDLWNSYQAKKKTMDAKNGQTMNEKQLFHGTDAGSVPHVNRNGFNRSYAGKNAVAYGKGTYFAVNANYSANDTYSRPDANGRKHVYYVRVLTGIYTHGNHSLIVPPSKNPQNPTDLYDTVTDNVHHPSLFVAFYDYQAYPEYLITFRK
METHOD NOTES: Enzymatic assay for inhibition of PARP14 (DELFIA, auto-modification with biotin-NAD)
COND: auto-modification of PARP14 by biotin-NAD, 50 nM PARP14, 3 μM biotin-NAD
Structures can show the parent of a compound that is named as a salt.
Provide the reported IC50 of each item.

> print(dat)
                                   compound  measured.attribute          observed
1  O=c1[nH]c(CSC2CCOCC2)nc2cc(NC3CCOCC3)c(F)cc12 [Example 245]                IC50  1000 to 10000 nM
2  CO[C@H]1C[C@@H](Nc2cc3nc(CS[C@H]4CC[C@H](O)CC4)[nH]c(=O)c3c(F)c2F)C1 [Example 363]                IC50         < 1000 nM
3  Cc1cccc2c(=O)[nH]c(CSC3CCN(C[C@H](O)CO)CC3)nc12 [Example 159, Trifluoroacetate]                IC50  1000 to 10000 nM

For every listed record, write down its IC50.
1. O=c1[nH]c(CSC2CCOCC2)nc2c(Cc3ccccc3)cccc12 [Example 10]
2. O=c1[nH]c(CSC2CCNCC2)nc2cc(OCC3CCCC3)cc(F)c12 [Example 282, 2,2,2-trifluoroacetate]
3. O=c1[nH]c(CSC2CCOCC2)nc2cc(NCCC3CCCC3)ccc12 [Example 252]
4. O=c1[nH]c(CSC2CCNCC2)nc2cc(NC3CCC3)cc(F)c12 [Example 177, Hydrochloride]
5. Cc1cccc2c(=O)[nH]c(CSC3CCN(C(=O)CCc4ccccn4)CC3)nc12 [Example 173]

1: > 10000 nM; 2: < 1000 nM; 3: < 1000 nM; 4: < 1000 nM; 5: 1000 to 10000 nM

---

Provide the reported pIC50 of each item.
TARGET OF ASSAY: catalytic domain of human PARP14 (Homo sapiens (Human), UniProt Q460N5)
METHOD NOTES: Enzymatic assay for inhibition of PARP14 (DELFIA, auto-modification with biotin-NAD)
COND: auto-modification of PARP14 by biotin-NAD, 50 nM PARP14, 3 μM biotin-NAD
Experimental: An N-terminal His-TEV fusion tag was used to purify the protein from cell lysates. The His-TEV tag was left on the protein for use in the enzymatic assay. Enzymatic inhibition of PARP14 was measured using a dissociation-enhanced lanthanide fluorescence immunoassay (DELFIA) monitoring the auto-modification of PARP14 by biotinylated nicotinamide adenine dinucleotide (biotin-NAD). […]
pIC50: −log10 of the molar value. Structures can show the parent of a compound that is named as a salt.

> print(dat)
                                   molecule  measured.attribute      observed
1  Cc1cccc2c(=O)[nH]c(CSC3CCN(Cc4ccccn4)CC3)nc12 [Example 18]               pIC50        > 6.00
2  Cc1cccc2c(=O)[nH]c(CSC3CCN(Cc4ccc5c(c4)NC(=O)C5)CC3)nc12 [Example 156, trifluoroacetate]               pIC50  5.00 to 6.00
3  O=c1[nH]c(CSC2CCOCC2)nc2cc(NC3CCCCC3(F)F)cc(F)c12 (centres unmarked) [Example 345]               pIC50        > 6.00
4  O=c1[nH]c(CS[C@H]2CC[C@H](O)CC2)nc2cc(OCC3CCCC3)cc(F)c12 [Example 314]               pIC50        > 6.00
5  Cc1cccc2c(=O)[nH]c(CSC3CCN(S(C)(=O)=O)CC3)nc12 [Example 174]               pIC50        > 6.00

For every listed record, write down its pIC50.
1. O=c1[nH]c(CSC2CCOCC2)nc2cc(OC[C@H]3CCCO3)cc(F)c12 [Example 321a]
2. O=c1[nH]c(CSC2CCOCC2)nc2cc(NCC3CCOCC3)c(F)c(F)c12 [Example 338]
3. Cc1cccc2c(=O)[nH]c(CS[C@H]3CC[C@@H](CN(C)C)CC3)nc12 [Example 68, Trifluoroacetate]

1. > 6.00
2. > 6.00
3. 5.00 to 6.00

---

Provide the reported pIC50 of each item.
TARGET OF ASSAY: catalytic domain of human PARP14 (Homo sapiens (Human))
METHOD NOTES: Enzymatic assay for inhibition of PARP14 (DELFIA, auto-modification with biotin-NAD)
COND: auto-modification of PARP14 by biotin-NAD, 50 nM PARP14, 3 μM biotin-NAD
pIC50: −log10 of the molar value. Structures can show the parent of a compound that is named as a salt.

> print(dat)
                                   molecule      observed
1  Cc1cccc2c(=O)[nH]c(CSC3CCN(CCNC(=O)c4ccccn4)CC3)nc12  5.00 to 6.00

For every listed record, write down its pIC50.
1. O=c1[nH]c(CSC2CCOCC2)nc2cc(OCC3CCN(CCC(F)(F)F)CC3)cc(F)c12
2. N#Cc1cccc2c(=O)[nH]c(CSC3CCOCC3)nc12
3. Cc1cccc2c(=O)[nH]c(CSC3CCC(O)CC3)nc12 (stereo not shown)
4. CC(=O)N1CC[C@@H](Nc2cc3nc(CS[C@H]4CC[C@H](O)CC4)[nH]c(=O)c3c(F)c2F)C1
5. Cc1cccc2c(=O)[nH]c(CSC3CCC(CN)CC3)nc12 (stereo not shown) [Example 64, Trifluoroacetate]
6. O=c1[nH]c(CSC2CCOCC2)nc2cc(OCC3CCN(CC(F)F)CC3)cc(F)c12

1. > 6.00
2. < 5.00
3. > 6.00
4. > 6.00
5. > 6.00
6. > 6.00

For every listed record, write down its pIC50.
1. Cc1cccc2c(=O)[nH]c(CS[C@H]3CC[C@@H](CO)CC3)nc12
2. Cc1ccc(F)c2c(=O)[nH]c(CSC3CCNCC3)nc12 [Example 51, Hydrochloride]

["5.00 to 6.00", "> 6.00"]

For every listed record, write down its pIC50.
1. CO[C@H]1CC[C@@H](Nc2cc3nc(CS[C@H]4CC[C@H](O)CC4)[nH]c(=O)c3c(F)c2F)CC1
2. O=c1[nH]c(CS[C@H]2CC[C@@H](C(=O)O)CC2)nc2cc(NC3CCCC3)cc(F)c12
3. O=c1[nH]c(CSC2CCOCC2)nc2cc(N[C@H]3C[C@@H](OC(F)(F)F)C3)c(F)c(F)c12
4. CC(=O)Nc1ccc(CN2CCC(SCc3nc4c(C)cccc4c(=O)[nH]3)CC2)cc1 [Example 139, trifluoroacetate]

["> 6.00", "5.00 to 6.00", "> 6.00", "> 6.00"]

For every listed record, write down its pIC50.
1. Cc1ccc(F)c2c(=O)[nH]c(CSC3CCOCC3)nc12
2. O=c1[nH]c(CSC2CCNCC2)nc2cc(NCCN3CCOCC3)cc(F)c12 [Example 277, dihydrochloride]
3. CC(=O)NC1(C)CCC(SCc2nc3cc(OCC4CC4)cc(F)c3c(=O)[nH]2)CC1 (stereo not shown)

1: > 6.00; 2: > 6.00; 3: > 6.00

---

TARGET OF ASSAY: catalytic domain of human PARP14 (Homo sapiens (Human), UniProt Q460N5)
METHOD NOTES: Enzymatic assay for inhibition of PARP14 (DELFIA, auto-modification with biotin-NAD)
COND: auto-modification of PARP14 by biotin-NAD, 50 nM PARP14, 3 μM biotin-NAD
Structures can show the parent of a compound that is named as a salt.
Provide the reported IC50 of each item.

Look over these answered cases.
> print(dat)
                                   molecule   observed
1  O=c1[nH]c(CSC2CCNCC2)nc2cc(NC3CCCC3)c(F)cc12 [Example 226, hydrochloride]  < 1000 nM
2    Cc1ccc(Cl)c2c(=O)[nH]c(CSC3CCOCC3)nc12  < 1000 nM
3  O=c1[nH]c(CS[C@H]2CC[C@H](O)CC2)nc2cc(NC3CCCC3)cc(F)c12  < 1000 nM

For every listed record, write down its IC50.
1. O=c1[nH]c(CSC2CCNCC2)nc2cc(NC3CCCC3)cc(Cl)c12 [Example 206, Hydrochloride]
2. O=c1[nH]c(CSC2CCOCC2)nc2cc(N[C@H]3CC[C@@H](N4CCOCC4)CC3)cc(F)c12 [Example 234, Trifluoroacetate]
3. O=c1[nH]c(CSC2CCOCC2)nc2cc(OCC3CCOCC3)cc(F)c12
4. O=c1[nH]c(CSC2CCOCC2)nc2cc(NC3CCCCC3)c(F)cc12
5. O=c1[nH]c(CSC2CCOCC2)nc2cc(NC3CCCC3)c(F)c(F)c12
6. CC(C)C(=O)N1CCC(COc2cc(F)c3c(=O)[nH]c(CSC4CCOCC4)nc3c2)CC1

1. < 1000 nM
2. 1000 to 10000 nM
3. < 1000 nM
4. < 1000 nM
5. < 1000 nM
6. < 1000 nM
